- Tested on: Bel-7402
- assay remarks: Decrease of cell quantity in human Bel7402 cells at 10 ug/ml after 48 hrs by inverted microscopic analysis
- Type: functional, cell-based
The source made the active and inactive calls. The calls are words filed in the database; no cut-off is given here.
Parameter call: string, one of active, inactive

Would you mind telling me which call this test gave "CC(=O)O[C@H]1C(=O)[C@@]2(C)[C@H]([C@H](OC(=O)c3ccccc3)[C@]3(O)C[C@H](OC(=O)[C@H](O)[C@@H](NC(=O)c4ccccc4)c4ccccc4)C(C)=C1C3(C)C)[C@]1(OC(C)=O)CO[C@@H]1C[C@@H]2O" ? inactive

Would you mind telling me which call this test gave "Cn1cc(C(=O)/C(C#N)=C/C(=C2\NCCN2Cc2ccc(Cl)nc2)[N+](=O)[O-])c2ccccc21" ? active

Would you mind telling me which call this test gave "N#C/C(=C\c1c[nH]c2ccccc12)C(=O)c1c[nH]c2ccccc12" ? active

Would you mind telling me which call this test gave "Cn1cc(C(=O)/C(C#N)=C/c2c[nH]c3ccccc23)c2ccccc21" ? active

Now for a further compound.
Would you mind telling me which call this test gave "N#C/C(=C\C(=C1/NCCN1Cc1ccc(Cl)nc1)[N+](=O)[O-])C(=O)c1c[nH]c2ccccc12" ? active

---

- assay remarks: Cytotoxicity against human HL-7702 cells assessed as growth inhibition at 40 ug/ml by MTT assay
- Assay type: cell-based, L02
- conditions: read-out: GI
# if value of inhibition at 40 ug/ml reaches 40%, tag Fulfilled; if it stays below, tag Not fulfilled

Worked cases, answers included:
Reported inhibition at 40 ug/ml reaches at least 40% for "Cn1cc(C(=O)/C(C#N)=C/c2ccccc2O)c2ccccc21" ? Not fulfilled

Reported inhibition at 40 ug/ml reaches at least 40% for "COc1cc(/C=C(\C#N)C(=O)c2c[nH]c3ccc(C#N)cc23)cc(OC)c1OC" ? Not fulfilled

Reported inhibition at 40 ug/ml reaches at least 40% for "Cn1cc(C(=O)/C(C#N)=C/c2c[nH]c3ccccc23)c2ccccc21" ? Fulfilled

Reported inhibition at 40 ug/ml reaches at least 40% for "N#C/C(=C\C(=C1/NCCN1Cc1ccc(Cl)nc1)[N+](=O)[O-])C(=O)c1c[nH]c2ccccc12" ? Fulfilled

Reported inhibition at 40 ug/ml reaches at least 40% for "Cn1cc(C(=O)/C(C#N)=C/c2ccccn2)c2ccccc21" ? Not fulfilled

Reported inhibition at 40 ug/ml reaches at least 40% for "N#C/C(=C\c1ccccc1O)C(=O)c1c[nH]c2ccccc12" ? Fulfilled

Others:
Reported inhibition at 40 ug/ml reaches at least 40% for "N#C/C(=C\C=C\c1ccccc1)C(=O)c1c[nH]c2ccccc12" ? Not fulfilled

Reported inhibition at 40 ug/ml reaches at least 40% for "COc1cc(/C=C(\C#N)C(=O)c2cn(C)c3ccccc23)cc(OC)c1OC" ? Fulfilled

Reported inhibition at 40 ug/ml reaches at least 40% for "N#C/C(=C\c1c[nH]c2ccccc12)C(=O)c1c[nH]c2ccccc12" ? Fulfilled

Reported inhibition at 40 ug/ml reaches at least 40% for "N#CCC(=O)c1c[nH]c2ccccc12" ? Not fulfilled

Reported inhibition at 40 ug/ml reaches at least 40% for "Cn1cc(C(=O)/C(C#N)=C/C(=C2\NCCN2Cc2ccc(Cl)nc2)[N+](=O)[O-])c2ccccc21" ? Fulfilled

Reported inhibition at 40 ug/ml reaches at least 40% for "Cn1cc(C(=O)CC#N)c2ccccc21" ? Not fulfilled

Reported inhibition at 40 ug/ml reaches at least 40% for "COc1cc(/C=C(\C#N)C(=O)c2c[nH]c3ccccc23)cc(OC)c1OC" ? Fulfilled

Reported inhibition at 40 ug/ml reaches at least 40% for "N#C/C(=C\c1ccccn1)C(=O)c1c[nH]c2ccccc12" ? Not fulfilled

Reported inhibition at 40 ug/ml reaches at least 40% for "Cn1cc(C(=O)/C(C#N)=C/c2ccccc2C#N)c2ccccc21" ? Fulfilled

Reported inhibition at 40 ug/ml reaches at least 40% for "N#CCC(=O)c1c[nH]c2ccc(C#N)cc12" ? Not fulfilled

Reported inhibition at 40 ug/ml reaches at least 40% for "N#C/C(=C\c1c[nH]c2ccccc12)C(=O)c1c[nH]c2ccc(C#N)cc12" ? Not fulfilled

Reported inhibition at 40 ug/ml reaches at least 40% for "N#C/C(=C\C(=C1/NCCN1Cc1cnc(Cl)s1)[N+](=O)[O-])C(=O)c1c[nH]c2ccccc12" ? Not fulfilled

---

- Tested on: Bel-7402
- assay remarks: Induction of morphological changes in human Bel7402 cells assessed as changing to globular and fragment of cells at 10 ug/ml after 48 hrs by inverted microscopic analysis
- Format: functional, cell-based
The source made the active and inactive calls. No cut-off for these calls is given here.
Parameter call: string, one of true (1) (active), false (0) (inactive)

Worked cases, answers included:
Would you mind telling me which call this test gave CC(=O)O[C@H]1C(=O)[C@@]2(C)[C@H]([C@H](OC(=O)c3ccccc3)[C@]3(O)C[C@H](OC(=O)[C@H](O)[C@@H](NC(=O)c4ccccc4)c4ccccc4)C(C)=C1C3(C)C)[C@]1(OC(C)=O)CO[C@@H]1C[C@@H]2O [PACLITAXEL] ? false (0)

Would you mind telling me which call this test gave "Cn1cc(C(=O)/C(C#N)=C/c2c[nH]c3ccccc23)c2ccccc21" ? true (1)

Would you mind telling me which call this test gave "N#C/C(=C\c1c[nH]c2ccccc12)C(=O)c1c[nH]c2ccccc12" ? true (1)

Would you mind telling me which call this test gave "Cn1cc(C(=O)/C(C#N)=C/C(=C2\NCCN2Cc2ccc(Cl)nc2)[N+](=O)[O-])c2ccccc21" ? true (1)

Others:
Would you mind telling me which call this test gave "N#C/C(=C\C(=C1/NCCN1Cc1ccc(Cl)nc1)[N+](=O)[O-])C(=O)c1c[nH]c2ccccc12" ? true (1)
